Listed below: Kd values for each entry.
# experimentalTarget: HLA-A*02:19
# assayDetails: IEDB peptide-MHC binding, purified MHC/competitive/fluorescence; filed as Kd, often an IC50 or EC50 that approximates it; bounds were set here for any values at or beyond the usual limits of such assays
# measurementSetup: source organism: Human immunodeficiency virus 1
valueType: Kd

sequenceEntry	assayValue
FLGKIWSS	2.33 nM
SLVKHHMYV	17.2 nM

* * *

# experimentalTarget: HLA-A*02:01
# assayDetails: IEDB peptide-MHC binding, purified MHC/direct/fluorescence; filed as Kd, often an IC50 or EC50 that approximates it; bounds were set here for any values at or beyond the usual limits of such assays
# measurementSetup: source organism: Brucella suis 1330
pKd: −log10 of the molar value.
valueType: pKd

sequenceEntry	assayValue
MHCDFAFWV	≤ 4.70

// provenance: the Immune Epitope Database (IEDB)
